# ASSAY EXPLANATION: Primary qHTS for Huh7 cytotoxicity: counterscreen for inhibitors of MERS-S pseudotyped particle cell entry (AID 1479147); further: on the % scale 0 is the no-effect control and ±100 the full control effect
# CONDITION SET: cell viability read-out; series mostly up to 57.1 µM
Inconclusive results are not listed. Calls of active or inactive are those of the source. The call rests on the fitted dose curve.
Listed below: activity change, negative = cytotoxicity values for each entry.

MOLECULAR STRING: CN[C@@H]1[C@H](O)[C@H](O[C@@H]2[C@H](O)[C@@H](O[C@H]3O[C@H]([C@@H](C)NC)CC[C@H]3N)[C@@H](N)C[C@H]2N)OC[C@]1(C)O
activity change, negative = cytotoxicity: -2.83% [at 11.4 µM] (inactive)
--
MOLECULAR STRING: CC(C)(C)CC(C)(C)c1cc(Cc2cc(C(C)(C)CC(C)(C)C)cc(-n3nc4ccccc4n3)c2O)c(O)c(-n2nc3ccccc3n2)c1
activity change, negative = cytotoxicity: 1.83% [at 5.34 µM] (inactive)
--
MOLECULAR STRING: CCCCCCCCCCCCCCCCCC(=O)[O][Al]
activity change, negative = cytotoxicity: -3.61% [at 5.34 µM] (inactive)
--
MOLECULAR STRING: CC(C=CC1=C(C)CCCC1(C)C)=CC=CC(C)=CC(=O)Oc1c(C)c(C)c2c(c1C)CC[C@@](C)(CCC[C@H](C)CCC[C@H](C)CCCC(C)C)O2
activity change, negative = cytotoxicity: -9.73% [at 5.34 µM] (inactive)
--
MOLECULAR STRING: Cc1cc(N)c2ccccc2[n+]1CCCCCCCCCC[n+]1c(C)cc(N)c2ccccc21
activity change, negative = cytotoxicity: 1.39% [at 11.4 µM] (inactive)
--
MOLECULAR STRING: C[C@]12C=CC(=O)C=C1CC[C@@H]1[C@@H]2[C@@H](O)C[C@@]2(C)[C@H]1CC[C@]2(O)C(=O)COP(=O)(O)O
activity change, negative = cytotoxicity: -13.3% [at 11.4 µM] (inactive)
--
MOLECULAR STRING: CC(C)OC(=O)CCC/C=C\C[C@@H]1[C@@H](CC[C@@H](O)CCc2ccccc2)[C@H](O)C[C@@H]1O
activity change, negative = cytotoxicity: -6.62% [at 11.4 µM] (inactive)

---

# ASSAY EXPLANATION: Primary qHTS to identify inhibitors of SARS-CoV-2 cell entry (AID 1645846); further: nearly all actives have a fitted effect of over 45% in size
# CONDITION SET: SARS-CoV-2 pseudovirus cell entry assay, luminescence; at 57.1 µM (top of the series) unless noted
Results filed as inconclusive are left out.
EXPERIMENTAL READOUT: activity change, negative = inhibition (%)

COMPOUND: O=S(O)CNc1ccc(S(=O)(=O)c2ccc(NCS(=O)O)cc2)cc1
VALUE OBSERVED: 3.29

COMPOUND: CCCCCCCCCC(=O)OC1CC[C@H]2[C@@H]3CCC4=CC(=O)CC[C@@H]4[C@H]3CC[C@]12C (some centres undefined)
VALUE OBSERVED: 0.678

COMPOUND: O=C(NC[C@H](O)CN1CCc2ccccc2C1)c1ccnc(NC2CCC2)c1
VALUE OBSERVED: 4.47

COMPOUND: COc1cccc(-c2cc(F)ccc2C2Cc3nc(N)nc(C)c3C(=O)N2)n1 (centres undefined)
VALUE OBSERVED: -91.7

COMPOUND: CN(C(=O)CNC(=O)/C=C/c1cccc(Cl)c1)C1CCS(=O)(=O)CC1
VALUE OBSERVED: -2.44

COMPOUND: Cc1ccc(NS(=O)(=O)c2cccc(C#N)c2)c2[nH]cc(C#N)c12
VALUE OBSERVED: -10.5

COMPOUND: Nc1nc(F)nc2c1ncn2C1OC(COP(=O)(O)O)C(O)C1O (centres undefined)
VALUE OBSERVED: -9.43

COMPOUND: CCOc1ccc(Cc2cc([C@@H]3O[C@H](CO)[C@@H](O)[C@H](O)[C@H]3O)ccc2Cl)cc1
VALUE OBSERVED: 0.66

COMPOUND: CC[C@H]1[C@@H](O)[C@@H]2[C@H](CC[C@]3(C)[C@@H]([C@H](C)CCC(=O)O)CC[C@@H]23)[C@@]2(C)CC[C@@H](O)C[C@@H]12
VALUE OBSERVED: -6.18

COMPOUND: CC1(C)SC2C(NC(=O)Cc3ccccc3)C(=O)N2C1C(=O)O (centres undefined)
VALUE OBSERVED: -15.9

COMPOUND: CON(C)C(=O)N1N=C(c2cc(F)ccc2F)S[C@@]1(CCCN)c1ccccc1
VALUE OBSERVED: -86.6

COMPOUND: O=C(OC[C@H]1O[C@@H](OC(=O)c2cc(O)c(O)c(O)c2)[C@H](O)[C@@H](OC(=O)c2cc(O)c(O)c(O)c2)[C@@H]1O)c1cc(O)c(O)c(O)c1
VALUE OBSERVED: -1.77

COMPOUND: C/C(=C(/CCO)SSCC1CCCO1)N(C=O)Cc1cnc(C)nc1N (centres undefined)
VALUE OBSERVED: -21.7

COMPOUND: O=C(O)CC1CCC(c2ccc(-c3ccc(Nc4ccc(C(F)(F)F)nc4)cn3)cc2)CC1 (centres undefined)
VALUE OBSERVED: -24.6

COMPOUND: CCCCC/C=C/C/C=C/CCCCCCCC(=O)O
VALUE OBSERVED: -0.957

COMPOUND: N=C1CCCN1Cc1[nH]c(=O)[nH]c(=O)c1Cl
VALUE OBSERVED: -1.38

COMPOUND: C[N@+]12CCCC[C@@H]1CCC(=C(c1cccs1)c1cccs1)C2
VALUE OBSERVED: -20.7

COMPOUND: COc1cccc2c1c(O)c(C(=O)N(C)c1ccc(C(F)(F)F)cc1)c(=O)n2C
VALUE OBSERVED: -9.47

COMPOUND: COc1cc(-c2cn(C)c(=O)c3cnccc23)c(OC)cc1CN(C)C
VALUE OBSERVED: -18.5

COMPOUND: ClCC1CO1 (centres undefined) (tested in a mixture with another compound)
VALUE OBSERVED: -15.1

COMPOUND: CO[C@H]1/C=C/O[C@@]2(C)Oc3c(C)c(O)c4c(O)c(c(/C=N/N5CCN(C)CC5)c(O)c4c3C2=O)NC(=O)/C(C)=C\C=C\[C@H](C)[C@H](O)[C@@H](C)[C@@H](O)[C@@H](C)[C@H](OC(C)=O)[C@@H]1C
VALUE OBSERVED: -0.679

COMPOUND: C=C(C)CNc1ccc(C(C)C(=O)O)cc1 (centres undefined)
VALUE OBSERVED: -20.2

COMPOUND: C[C@]12CCC3[C@@H](CC[C@H]4NC(=O)C=C[C@]34C)[C@@H]1CC[C@@H]2C(=O)Nc1cc(C(F)(F)F)ccc1C(F)(F)F (some centres undefined)
VALUE OBSERVED: -7.71

COMPOUND: Cn1c(=O)cc(N2CCC[C@@H](N)C2)n(Cc2cc(F)ccc2C#N)c1=O
VALUE OBSERVED: -23.7

COMPOUND: FCOC(C(F)(F)F)C(F)(F)F
VALUE OBSERVED: -16

COMPOUND: CCOC(=O)CN[C@@H](C(=O)N1CC[C@H]1C(=O)NCc1ccc(/C(N)=N/O)cc1)C1CCCCC1
VALUE OBSERVED: -19.7

COMPOUND: CCO[C@@H]1OC(=O)C[C@@H]1NC(=O)[C@@H]1CCCN2C(=O)CC[C@H](NC(=O)c3nccc4ccccc34)C(=O)N12
VALUE OBSERVED: -4.46

COMPOUND: Cc1cc(C)c2c(c1)[C@@H](N(Cc1cc(C(F)(F)F)cc(C(F)(F)F)c1)c1nnn(C)n1)CCCN2CC1CCC(C(=O)O)CC1 (some centres undefined)
VALUE OBSERVED: -28

COMPOUND: Nc1cc(COc2c(Cl)cc(C[C@H](N)C(=O)O)cc2Cl)c2oc(-c3ccccc3)nc2c1
VALUE OBSERVED: -18.9

COMPOUND: Nc1nccc2c1ncn2[C@@H]1C=C(CO)[C@@H](O)[C@H]1O
VALUE OBSERVED: -51.3

---

# TESTED SYSTEM: Nuclear receptor subfamily 1 group I member 2 (Homo sapiens) (UniProt O75469)
# Sequence (O75469 whole entry, looked up): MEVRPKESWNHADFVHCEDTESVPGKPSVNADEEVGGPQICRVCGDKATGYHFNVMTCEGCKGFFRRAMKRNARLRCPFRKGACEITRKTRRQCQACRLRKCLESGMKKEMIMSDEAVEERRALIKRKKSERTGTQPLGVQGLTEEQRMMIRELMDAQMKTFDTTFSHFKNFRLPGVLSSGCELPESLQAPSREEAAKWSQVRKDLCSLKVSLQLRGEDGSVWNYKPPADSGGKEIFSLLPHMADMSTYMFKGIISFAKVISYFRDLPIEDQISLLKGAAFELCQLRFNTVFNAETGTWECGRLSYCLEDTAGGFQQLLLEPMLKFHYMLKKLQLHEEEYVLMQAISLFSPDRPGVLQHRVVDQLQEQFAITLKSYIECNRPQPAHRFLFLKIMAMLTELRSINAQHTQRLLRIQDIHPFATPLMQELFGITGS
# ASSAY EXPLANATION: Dual reporter qHTS for agonist of Pregnane X Receptor (hPXR) against the NCATS DSHEA and TCM libraries: Luminescence readout (AID 1920059); further: 0% is about no effect
# CONDITION SET: hPXR dual reporter cells, luciferase luminescence agonist; series mostly up to 40 µM
Inconclusive results are not listed. Active and inactive are the calls of the source. Calls follow the shape of the dose curve; as a rule, active = well fitted activation curve with a large enough effect; inconclusive = small, poorly fitted or top-dose-only effect; inactive = flat fitted curve, though single readings scatter.

MOLECULE: COc1cc2c(cc1O)C[C@H]1c3c(cc(OC)c(O)c3-2)CCN1C
TESTED SYSTEM: Nuclear receptor subfamily 1 group I member 2 (Homo sapiens) (UniProt O75469)
outcome: inactive

MOLECULE: N#CC(O[C@@H]1O[C@H](CO[C@@H]2O[C@H](CO)[C@@H](O)[C@H](O)[C@H]2O)[C@@H](O)[C@H](O)[C@H]1O)c1ccccc1 (stereo partly specified)
TESTED SYSTEM: Nuclear receptor subfamily 1 group I member 2 (Homo sapiens) (UniProt O75469)
outcome: inactive

MOLECULE: C=CCc1ccc2c(c1)OCO2
TESTED SYSTEM: Nuclear receptor subfamily 1 group I member 2 (Homo sapiens) (UniProt O75469)
outcome: inactive

MOLECULE: COC1=CC(=O)O[C@@H](/C=C/c2ccc3c(c2)OCO3)C1
TESTED SYSTEM: Nuclear receptor subfamily 1 group I member 2 (Homo sapiens) (UniProt O75469)
outcome: inactive

MOLECULE: COc1cc2c(cc1O)CC1NCCc3cc(OC)c(OC)c-2c31 (stereo unspecified)
TESTED SYSTEM: Nuclear receptor subfamily 1 group I member 2 (Homo sapiens) (UniProt O75469)
outcome: inactive

MOLECULE: O=S(=O)(O)O
TESTED SYSTEM: Nuclear receptor subfamily 1 group I member 2 (Homo sapiens) (UniProt O75469)
outcome: inactive
